pKi for assorted molecules
Molecular target: UniProtKB O95665
Sequence (O95665 whole entry): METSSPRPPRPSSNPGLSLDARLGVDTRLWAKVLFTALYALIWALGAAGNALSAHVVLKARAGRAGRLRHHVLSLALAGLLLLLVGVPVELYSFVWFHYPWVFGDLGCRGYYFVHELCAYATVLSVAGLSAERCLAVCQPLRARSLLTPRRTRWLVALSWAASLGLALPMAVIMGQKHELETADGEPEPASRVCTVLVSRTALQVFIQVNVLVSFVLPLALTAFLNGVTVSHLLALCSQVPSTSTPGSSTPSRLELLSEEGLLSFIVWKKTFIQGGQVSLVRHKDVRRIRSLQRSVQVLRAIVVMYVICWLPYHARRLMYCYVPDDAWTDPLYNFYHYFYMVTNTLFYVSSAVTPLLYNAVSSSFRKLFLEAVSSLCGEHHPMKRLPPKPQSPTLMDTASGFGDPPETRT
Assay: Displacement of [125I]-neurotensin from human recombinant NTS2 stably expressed in human 1321N1 cell membranes incubated for 60 mins by gamma counter method
Numbered stars: 1 amine (or outer) side, 2 acyl side, 3 side chain; on linkers, the order of the positions; unused ones are H or OH. Square brackets hold non-standard residues; d marks the D form. Peptide text beside a SMILES is read from it. X1 = O=C1[C@@H](N[*:1])Cc2ccccc2CN1CCC(=O)[*:2]; Dmt = Cc1cc(O)cc(C)c1C[C@H](N)C(=O)O; Tle = CC(C)(C)[C@H](N)C(=O)O; β3hK = NCCCC[C@H](N)CC(=O)O
# pKi: negative log10 of molar concentration; output just the value

Request: Please supply the value of reported pKi for the item CC(C)C[C@H](NC(=O)[C@@H](NC(=O)[C@H](Cc1cccc(O)c1)NC(=O)[C@@H]1CCCN1C(=O)[C@H](CCCNC(=N)N)NC(=O)[C@@H](N)CCCNC(=N)N)C(C)(C)C)C(=O)O
Result: 7.62

Request: Please supply the value of reported pKi for the item Cc1cc(O)cc(C)c1C[C@H](NC(=O)[C@@H]1CCCN1C(=O)[C@H](CCCCN)NC(=O)C[C@H](CCCCN)NC(=O)CCN1Cc2ccccc2C[C@H](NC(=O)[C@@H](CCCNC(=N)N)NC(=O)[C@@H](N)Cc2c(C)cc(O)cc2C)C1=O)C(=O)N[C@H](C(=O)N[C@@H](CC(C)C)C(=O)O)C(C)(C)C (H-[Dmt][dR][X1][β3hK]KP[Dmt][Tle]L-OH)
Result: 9.49

----------
Target: UniProt P35372
Assay: Agonist activity at human MOR stably expressed in CHO cell membranes assessed as stimulation of [35S]-GTPgammaS binding incubated for 1 hr by liquid scintillation counting assay
Format: functional
Numbered stars: 1 amine (or outer) side, 2 acyl side, 3 side chain; on linkers, the order of the positions; unused ones are H or OH. Square brackets hold non-standard residues; d marks the D form. Peptide text beside a SMILES is read from it. X1 = O=C1[C@@H](N[*:1])Cc2ccccc2CN1CCC(=O)[*:2]; X2 = O=C([C@@H]1Cc2cc(O)ccc2CN1[*:1])[*:2]; Dmt = Cc1cc(O)cc(C)c1C[C@H](N)C(=O)O; mTyr = N[C@@H](Cc1cccc(O)c1)C(=O)O; β3hR = N=C(N)NCCC[C@H](N)CC(=O)O; Tle = CC(C)(C)[C@H](N)C(=O)O; β3hK = NCCCC[C@H](N)CC(=O)O
pEC50 for assorted compounds
# pEC50: negative log10 of molar concentration; output just the value

Request: Please supply the value of reported pEC50 for the item Cc1cc(O)cc(C)c1C[C@H](N)C(=O)N[C@H](CCCCN)C(=O)N[C@@H](Cc1ccccc1)C(=O)N[C@@H](Cc1ccccc1)C(=O)N[C@@H](CCCCN)C(=O)N[C@@H](CCCCN)C(=O)N1CCC[C@H]1C(=O)N[C@@H](Cc1ccccc1)C(=O)N[C@H](C(=O)N[C@@H](CC(C)C)C(=O)O)C(C)(C)C (H-[Dmt][dK]FFKKPF[Tle]L-OH)
Result: 7.88

Request: Please supply the value of reported pEC50 for the item Cc1cc(O)cc(C)c1C[C@H](NC(=O)[C@@H]1CCCN1C(=O)[C@H](CCCNC(=N)N)NC(=O)C[C@H](CCCNC(=N)N)NC(=O)CCN1Cc2ccccc2C[C@H](NC(=O)[C@@H](CCCNC(=N)N)NC(=O)[C@@H](N)Cc2c(C)cc(O)cc2C)C1=O)C(=O)N[C@H](C(=O)N[C@@H](CC(C)C)C(=O)O)C(C)(C)C (H-[Dmt][dR][X1][β3hR]RP[Dmt][Tle]L-OH)
Result: 7.54

***
Request: Please supply the value of reported pEC50 for the item Cc1cc(O)cc(C)c1C[C@H](N)C(=O)N[C@H](CCCNC(=N)N)C(=O)N[C@H]1Cc2ccccc2CN(CCC(=O)N[C@@H](CCCNC(=N)N)C(=O)N[C@@H](CCCNC(=N)N)C(=O)N2CCC[C@H]2C(=O)N2Cc3ccc(O)cc3C[C@H]2C(=O)N[C@H](C(=O)N[C@@H](CC(C)C)C(=O)O)C(C)(C)C)C1=O (H-[Dmt][dR][X1]RRP[X2][Tle]L-OH)
Result: 8.34

Request: Please supply the value of reported pEC50 for the item Cc1cc(O)cc(C)c1C[C@H](NC(=O)[C@@H]1CCCN1C(=O)[C@H](CCCCN)NC(=O)C[C@H](CCCCN)NC(=O)CCN1Cc2ccccc2C[C@H](NC(=O)[C@@H](CCCNC(=N)N)NC(=O)[C@@H](N)Cc2c(C)cc(O)cc2C)C1=O)C(=O)N[C@H](C(=O)N[C@@H](CC(C)C)C(=O)O)C(C)(C)C (H-[Dmt][dR][X1][β3hK]KP[Dmt][Tle]L-OH)
Result: 7.18

Request: Please supply the value of reported pEC50 for the item Cc1cc(O)cc(C)c1C[C@H](N)C(=O)N[C@H](CCCNC(=N)N)C(=O)N[C@H]1Cc2ccccc2CN(CCC(=O)N[C@@H](CCCNC(=N)N)C(=O)N[C@@H](CCCNC(=N)N)C(=O)N2CCC[C@H]2C(=O)N[C@@H](Cc2cccc(O)c2)C(=O)N[C@H](C(=O)N[C@@H](CC(C)C)C(=O)O)C(C)(C)C)C1=O (H-[Dmt][dR][X1]RRP[mTyr][Tle]L-OH)
Result: 8.19

----------
Molecular target: Mu-type opioid receptor (Homo sapiens)
Sequence (P35372 whole entry): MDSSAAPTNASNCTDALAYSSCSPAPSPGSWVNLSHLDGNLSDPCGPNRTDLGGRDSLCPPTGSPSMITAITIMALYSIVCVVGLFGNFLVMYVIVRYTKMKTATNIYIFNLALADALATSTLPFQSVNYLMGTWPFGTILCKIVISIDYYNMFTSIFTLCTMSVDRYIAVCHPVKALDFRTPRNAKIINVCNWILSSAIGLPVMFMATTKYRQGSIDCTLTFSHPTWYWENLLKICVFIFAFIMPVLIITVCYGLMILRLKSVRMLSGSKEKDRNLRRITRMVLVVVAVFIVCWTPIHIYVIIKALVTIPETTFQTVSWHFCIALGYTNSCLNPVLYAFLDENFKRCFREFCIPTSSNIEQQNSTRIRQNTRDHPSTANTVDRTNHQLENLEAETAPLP
Assay: Agonist activity at human MOR expressed in human U2OS cells assessed as increase in beta arrestin2 recruitment incubated for 90 mins by pathhunter beta-arrestin assay
Type: cell-based
pEC50: −log10 of the molar value. Numbered stars: 1 amine (or outer) side, 2 acyl side, 3 side chain; on linkers, the order of the positions; unused ones are H or OH. Square brackets hold non-standard residues; d marks the D form. Peptide text beside a SMILES is read from it. X1 = O=C1[C@@H](N[*:1])Cc2ccccc2CN1CCC(=O)[*:2]; X2 = O=C([C@@H]1Cc2cc(O)ccc2CN1[*:1])[*:2]; Dmt = Cc1cc(O)cc(C)c1C[C@H](N)C(=O)O; mTyr = N[C@@H](Cc1cccc(O)c1)C(=O)O; Tle = CC(C)(C)[C@H](N)C(=O)O; β3hK = NCCCC[C@H](N)CC(=O)O
Classify as follows. Reported pEC50 greater than or equal to 6: y. Reported pEC50 below: n.

Some solved cases for reference:
Request: Evaluate Cc1cc(O)cc(C)c1C[C@H](N)C(=O)N[C@H](CCCNC(=N)N)C(=O)N[C@H]1Cc2ccccc2CN(CCC(=O)N[C@@H](CCCNC(=N)N)C(=O)N[C@@H](CCCNC(=N)N)C(=O)N2CCC[C@H]2C(=O)N[C@@H](Cc2cccc(O)c2)C(=O)N[C@H](C(=O)N[C@@H](CC(C)C)C(=O)O)C(C)(C)C)C1=O (H-[Dmt][dR][X1]RRP[mTyr][Tle]L-OH) : pEC50 at minimum 6?
Result: y

Request: Evaluate Cc1cc(O)cc(C)c1C[C@H](N)C(=O)N[C@H](CCCNC(=N)N)C(=O)N[C@H]1Cc2ccccc2CN(CCC(=O)N[C@@H](CCCCN)C(=O)N[C@@H](CCCCN)C(=O)N2CCC[C@H]2C(=O)N[C@@H](Cc2ccc(O)cc2)C(=O)N[C@H](C(=O)N[C@@H](CC(C)C)C(=O)O)C(C)(C)C)C1=O (H-[Dmt][dR][X1]KKPY[Tle]L-OH) : pEC50 at minimum 6?
Result: n

Request: Evaluate Cc1cc(O)cc(C)c1C[C@H](N)C(=O)N[C@H](CCCNC(=N)N)C(=O)N[C@H]1Cc2ccccc2CN(CCC(N)=O)C1=O : pEC50 at minimum 6?
Result: y

***
Request: Evaluate Cc1cc(O)cc(C)c1C[C@H](NC(=O)[C@@H]1CCCN1C(=O)[C@H](CCCCN)NC(=O)C[C@H](CCCCN)NC(=O)CCN1Cc2ccccc2C[C@H](NC(=O)[C@@H](CCCNC(=N)N)NC(=O)[C@@H](N)Cc2c(C)cc(O)cc2C)C1=O)C(=O)N[C@H](C(=O)N[C@@H](CC(C)C)C(=O)O)C(C)(C)C (H-[Dmt][dR][X1][β3hK]KP[Dmt][Tle]L-OH) : pEC50 at minimum 6?
Result: n

Request: Evaluate Cc1cc(O)cc(C)c1C[C@H](N)C(=O)N[C@H](CCCNC(=N)N)C(=O)N[C@H]1Cc2ccccc2CN(CCC(=O)N[C@@H](CCCCN)C(=O)N[C@@H](CCCCN)C(=O)N2CCC[C@H]2C(=O)N2Cc3ccc(O)cc3C[C@H]2C(=O)N[C@H](C(=O)N[C@@H](CC(C)C)C(=O)O)C(C)(C)C)C1=O (H-[Dmt][dR][X1]KKP[X2][Tle]L-OH) : pEC50 at minimum 6?
Result: n

Request: Evaluate Cc1cc(O)cc(C)c1C[C@H](NC(=O)[C@@H]1CCCN1C(=O)[C@H](CCCCN)NC(=O)[C@H](CCCCN)NC(=O)CCN1Cc2ccccc2C[C@H](NC(=O)[C@@H](CCCNC(=N)N)NC(=O)[C@@H](N)Cc2c(C)cc(O)cc2C)C1=O)C(=O)N[C@H](C(=O)N[C@@H](CC(C)C)C(=O)O)C(C)(C)C (H-[Dmt][dR][X1]KKP[Dmt][Tle]L-OH) : pEC50 at minimum 6?
Result: n
